Overview of recorded MFIR HisTag FITC for various binders
biological target: T1, CD33 (UniProt P20138 18-364, limits assumed); experiment: flow cytometry, MOLM-13 cells, anti-His-FITC detection, ratio to no bridge
T1 construct: whole, on cells; also called Siglec-3; CD33 on MOLM-13 cells
T1 sequence (P20138 18-364 limits assumed): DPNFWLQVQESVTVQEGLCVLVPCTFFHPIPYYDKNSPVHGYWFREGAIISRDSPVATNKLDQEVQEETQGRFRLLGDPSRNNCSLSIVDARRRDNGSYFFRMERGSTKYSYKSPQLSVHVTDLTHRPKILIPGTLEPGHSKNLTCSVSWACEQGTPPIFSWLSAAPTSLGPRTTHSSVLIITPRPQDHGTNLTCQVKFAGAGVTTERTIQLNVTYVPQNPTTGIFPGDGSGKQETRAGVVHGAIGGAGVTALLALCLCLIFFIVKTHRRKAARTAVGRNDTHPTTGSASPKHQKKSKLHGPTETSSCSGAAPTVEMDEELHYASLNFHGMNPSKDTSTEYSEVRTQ
Answer with the value's number alone.

Reference set (2 entries):
| binder | MFIR HisTag FITC |
| --- | --- |
| CD33 BRIDGE variant B3 (Fab, V domains shown, Lintuzumab-based Fab bridging molecule) VH: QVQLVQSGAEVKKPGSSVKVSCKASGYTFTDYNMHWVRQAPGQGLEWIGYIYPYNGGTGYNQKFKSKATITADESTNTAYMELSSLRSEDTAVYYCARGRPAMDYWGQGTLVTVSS VL: DIQMTQSPSSLSASVGDRVTITCRASESVDNYGISFMNWFQQKPGKAPKLLIYAASNQGSGVPSRFSGSGSGTDFTLTISSLQPDDFATYYCQQSKEVPWTFGQGTKVEIKR | 10.1 |
| CD33 BRIDGE variant B14 (Fab, V domains shown, Lintuzumab-based Fab bridging molecule) VH: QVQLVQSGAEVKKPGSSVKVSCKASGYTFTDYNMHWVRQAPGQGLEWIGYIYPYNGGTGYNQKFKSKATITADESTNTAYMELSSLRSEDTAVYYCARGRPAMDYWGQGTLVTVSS VL: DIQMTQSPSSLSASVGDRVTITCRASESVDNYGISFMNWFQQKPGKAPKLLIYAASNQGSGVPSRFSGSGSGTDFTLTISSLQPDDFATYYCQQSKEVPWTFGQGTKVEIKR | 9.97 |

--- query ---
Asked: MFIR HisTag FITC lookup needed for CD33 BRIDGE variant B9 (Fab, V domains shown, Lintuzumab-based Fab bridging molecule) VH: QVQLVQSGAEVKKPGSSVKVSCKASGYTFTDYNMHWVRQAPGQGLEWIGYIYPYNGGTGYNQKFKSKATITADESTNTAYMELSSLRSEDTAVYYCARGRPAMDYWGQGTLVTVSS VL: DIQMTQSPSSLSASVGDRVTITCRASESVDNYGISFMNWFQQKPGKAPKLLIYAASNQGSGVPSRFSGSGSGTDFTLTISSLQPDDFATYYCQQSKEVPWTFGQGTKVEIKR , thanks.
Given back: 9.45
